Numbers sourced from BindingDB's records for patent US12503484.

Form field: pIC50 (one value per entry).
# test_target: Sodium/potassium-transporting ATPase subunit alpha-1 (Canis lupus familiaris, UniProt P50997)
# test_summary: Inhibition of Dog Renal Na+/K+ ATPase Activity
pIC50: −log10 of the molar value.
value_type: pIC50

>>> reported("CCCC(=O)OCCC1CC[C@@]2(C)C(C1)[C@@H](O)C[C@@H]1[C@@H]2CC[C@]2(C)C(=O)CC[C@@H]12 (some centres not stated)")
"< 4.00"
>>> reported("CCCCC(C(=O)O)C1CC[C@@]2(C)C(C1)[C@H](O)C[C@@H]1[C@@H]2CC[C@]2(C)C(=O)CC[C@@H]12 (some centres not stated)")
"< 4.00"
